Entries and their Emax
Target: PPAR-α (Homo sapiens, UniProt Q07869)
Construct: expressed in transfected cells; host or cells: HeLa cells
Sequence (Q07869 1-468): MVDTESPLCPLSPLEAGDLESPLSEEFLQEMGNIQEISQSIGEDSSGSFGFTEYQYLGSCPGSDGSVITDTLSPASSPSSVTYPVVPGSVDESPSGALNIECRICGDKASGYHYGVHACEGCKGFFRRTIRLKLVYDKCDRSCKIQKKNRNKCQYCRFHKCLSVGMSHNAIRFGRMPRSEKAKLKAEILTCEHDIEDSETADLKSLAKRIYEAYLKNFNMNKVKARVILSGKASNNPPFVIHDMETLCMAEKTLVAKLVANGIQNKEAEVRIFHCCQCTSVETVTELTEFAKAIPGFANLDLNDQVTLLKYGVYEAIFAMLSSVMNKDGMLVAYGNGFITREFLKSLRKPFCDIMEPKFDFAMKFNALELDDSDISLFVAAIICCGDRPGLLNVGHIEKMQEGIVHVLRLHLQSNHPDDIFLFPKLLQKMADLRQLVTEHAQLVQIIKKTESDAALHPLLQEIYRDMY
Experiment: PPAR-type receptor transactivation test (luciferase reporter), PPAR-α
Assay type: cell-based
Details: HeLa, 24 h; read-out: % activation α
Provide only the numeric value, understood in %.

Reference set (3 entries):
molecule=COc1ccc(C(=O)c2ccc(C(=O)O)cc2)cc1C12CC3CC(CC(C3)C1)C2 recorded_endpoint=Emax numeric_result=0
molecule=CC1(C)CCOc2ccc(C(=O)c3ccc4cc(C(=O)O)ccc4c3)cc21 recorded_endpoint=Emax numeric_result=16
molecule=CC1(C)CCc2cc(C(=O)c3ccc4cc(C(=O)O)ccc4c3)ccc2O1 recorded_endpoint=Emax numeric_result=48

Item: COc1cc(C(=O)c2ccc3cc(C(=O)O)ccc3c2)ccc1C12CC3CC(CC(C3)C1)C2 | Emax: 6

Item: CCCCOC(c1ccc2c(c1)C(C)(C)CCC2(C)C)c1ccc2cc(C(=O)O)ccc2c1 (centres unmarked) | Emax: 0

Item: COc1ccc(C(O)c2ccc(C(=O)O)cc2)cc1C12CC3CC(CC(C3)C1)C2 (centres unmarked) | Emax: 4

Item: CC(C)(C)c1ccc(C(=O)c2ccc3cc(C(=O)O)ccc3c2)cc1 | Emax: 63

Item: O=C(O)c1ccc2cc(C(=O)c3ccc4c(c3)CCCC4)ccc2c1 | Emax: 40
